- ASSAY_PROTOCOL: JHH-DIPG-1 glioma cell viability, MIPE5.0 library, CellTiter-Glo luminescence, qHTS (AID 1347067);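 also: cells exposed to compound for 48 hours before readout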
- STUDY_CONDITIONS: JHH-DIPG-1 glioma viability, CellTiter-Glo ATP luminescence
Results filed as inconclusive are left out. Activity calls are given as the source filed them. The limit is not given here; nearly all actives have AC50 up to about 26 µM.
Pick one: active, inactive

# count of solved cases: 2
C[C@@]1(c2ncncc2F)NC(=O)c2cc(-c3cn[nH]c3)ccc21	inactive
Cc1ccc(C(=O)Nc2cccc(C(F)(F)F)c2)cc1Nc1nc(-c2cccnc2)nc2c1cnn2C	active

Consider the additional molecule presented here.
-- ask # outcome recorded in this test, key = CC1=C(C(=O)Nc2cc3cn[nH]c3cc2F)C(c2ccc(Cl)cc2F)N=C(c2ccnc(Cl)c2)N1 (stereo not given)
-- reply active

* * *

- ASSAY_PROTOCOL: viability loss with induced miR-34 in A549 – imaging, A549 dox-inducible miR-34, nuclei and caspase counts, primary screen (AID 1347080)
- STUDY_CONDITIONS: A549 miR-34 inducible, Hoechst nuclei count, 48 h; hits give low values; cell number ratio, induced over uninduced
So basically, if fold change comes in under 0.9 it's TRUE, and if it's 0.9 or more it's FALSE.

NC(=Nc1ccc(F)cc1)NO	FALSE
C#CCN1C(C)=C(C(=O)OC)C(c2cccc([N+](=O)[O-])c2)C(C(=O)OCC)=C1C (configuration not stated)	FALSE

-- ask Below 0.9 on fold change? Entry Cc1ccc(NC2=CC(=O)c3sc(C)nc3C2=O)cc1
-- reply TRUE

-- ask Then OC1CCC(Nc2nc(-c3ccccc3)nc3[nH]ccc23)CC1 (configuration not stated) ?
-- reply FALSE

-- ask Then CC(=Nc1ccccc1N)c1c(C)cc(=O)n(O)c1O ?
-- reply FALSE

-- ask Then O=C1OC2(c3ccc(O)cc3Oc3cc(OS(=O)(=O)c4c(F)c(F)c(F)c(F)c4F)ccc32)c2ccccc21 (configuration not stated) ?
-- reply FALSE

-- ask Then NC(=O)c1ccc(I)c([N+](=O)[O-])c1 ?
-- reply TRUE

-- ask Then CC(C)c1ccccc1S(=O)(=O)c1cc(N)c2ncccc2c1[N+](=O)[O-] ?
-- reply TRUE

-- ask Then COc1ncc(-c2ccc3nccc(-c4ccnnc4)c3c2)cc1NS(=O)(=O)c1ccc(F)cc1F ?
-- reply FALSE

-- ask Then CCOC(=O)N1CCN(/[N+]([O-])=N/Oc2ccc([N+](=O)[O-])cc2[N+](=O)[O-])CC1 ?
-- reply FALSE

* * *

- ASSAY_PROTOCOL: JHH-DIPG-1 glioma cell viability, MIPE5.0 library, CellTiter-Glo luminescence, qHTS (AID 1347067);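 also: cells exposed to compound for 48 hours before readout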
- STUDY_CONDITIONS: JHH-DIPG-1 glioma viability, CellTiter-Glo ATP luminescence
Records with an inconclusive call do not appear. The source made the active and inactive calls. No cut-off is given here; in the data, nearly all actives have AC50 up to about 26 µM.
Pick one: true (1) (active), false (0) (inactive)

# count of solved cases: 3
COc1ccc2c(OCc3nnc4ccc(-c5ccccc5)nn34)ccnc2c1	false (0)
NC(=O)c1cnc(N[C@@H]2CCCC[C@@H]2N)nc1Nc1cccc(-n2nccn2)c1	true (1)
O=C(O)c1cnn(-c2nc3cc(OC(F)(F)F)c(Cl)cc3[nH]2)c1	false (0)

-- ask # outcome recorded in this test, key = C[C@@]1(C(=O)Nc2ccc(F)nc2)CCCN1c1nc(Nc2cc(C3CC3)[nH]n2)c2cccn2n1
-- reply true (1)

-- ask Then C=C[C@H]1CN2CCC1C[C@@H]2C(O)c1ccnc2ccc(OC)cc12 (stereo not given in full) ?
-- reply false (0)

-- ask Then COc1c(C)cnc(Cn2cnc3c(Cl)nc(N)nc32)c1C ?
-- reply true (1)

-- ask Then O=C(NC[C@H](O)CO)c1ccncc1Nc1ccc(I)cc1F ?
-- reply true (1)

-- ask Then CO[C@@H]1[C@@H](O)[C@H](O)[C@@H](n2c3c(Cl)cccc3c3c4c(c5c6cccc(Cl)c6[nH]c5c32)C(=O)NC4=O)O[C@H]1CO ?
-- reply true (1)

-- ask Then CCCCOCCOc1nc(-c2ccc(C(=O)O)c(F)c2)sc1C ?
-- reply false (0)

-- ask Then C[C@H](NC(=O)CCC(F)(F)F)C(=O)N[C@@H]1C(=O)N(CCO)c2ncccc2-c2ccccc21 ?
-- reply false (0)
